All figures here come from patent US20190194280A1.

Below: a set of entries, each annotated with reported IC50-based peak height.
tested.target: Serum samples collected at week 16 from patients immunized with UBI AD vaccine (UB-311)
measurement.protocol: comp. ELISA, serum P205

Would you please look over these solved cases?
>>> value_observed("GYEVHHQKLV [Aβ9-18 or APP 770 (G680-V689)]")
0
>>> value_observed("AEFRHDSGYE [Aβ2-11 or APP 770 (A673-E682)]")
0
>>> value_observed("EISEVKMDAE [Aβ-7-3 or APP 770 (E665-E674)]")
0

Req: Any idea what its IC50-based peak height is? The binder is QKLVFFAEDV [Aβ15-24 or APP 770 (Q686-V695)]
Resp: 0

Req: Next record, please: ISEVKMDAEF [Aβ-6-4 or APP 770 (I666-F675)]
Resp: 0

Req: What do you have for VHHQKLVFFA [Aβ12-21 or APP 770 (V683-A692)] ?
Resp: 0

Req: Next binder up: EFRHDSGYEV [Aβ3-12 or APP 770 (E674-V683)]
Resp: 0

Req: Another binder to look at: SGYEVHHQKL [Aβ8-17 or APP 770 (S679-L688)]
Resp: 0

Req: Then this binder: DSGYEVHHQK [Aβ7-16 or APP 770 (D678-K687)]
Resp: 0

Req: Also HDSGYEVHHQ [Aβ6-15 or APP 770 (H677-Q686)] ?
Resp: 0

Req: Same again, this time with EEISEVKMDA [Aβ-8-2 or APP 770 (E664-A673)]
Resp: 0

Req: Please answer likewise for YEVHHQKLVF [Aβ10-19 or APP 770 (Y681-F690)]
Resp: 0

Req: And then SEVKMDAEFR [Aβ-5-5 or APP 770 (S667-R676)] , what is it?
Resp: 0

Req: Another binder to check: TEEISEVKMD [Aβ-9-1 or APP 770 (T663-D672)]
Resp: 0

Req: Now give it for EVKMDAEFRH [Aβ-4-6 or APP 770 (E668-H677)] too.
Resp: 0

Req: Further, for HHQKLVFFAE [Aβ13-22 or APP 770 (H684-E693)] ?
Resp: 0
